Readings of Ratio Ki for the listed molecules
Test: Selectivity ratio of Ki for human recombinant delta opioid receptor to Ki for rat recombinant kappa opioid receptor

Smiles repr	Ratio Ki
CC(C)[C@@H](CN1CC[C@@](C)(c2cccc(O)c2)[C@@H](C)C1)NC(=O)[C@H]1Cc2ccc(OCCCF)cc2CN1	8.9
CC(C)[C@@H](CN1CC[C@@](C)(c2cccc(O)c2)[C@@H](C)C1)NC(=O)[C@H]1Cc2ccc(O)cc2CN1CCF	13.2
CC(C)[C@@H](CN1CC[C@@](C)(c2cccc(O)c2)[C@@H](C)C1)NC(=O)[C@H]1Cc2ccc(OCCF)cc2CN1	3.4
CC(C)[C@@H](CN1CC[C@@](C)(c2cccc(O)c2)[C@@H](C)C1)NC(=O)[C@H]1Cc2ccc(O)cc2CN1CCCF	159

Where do these numbers come from? They come from ChEMBL document CHEMBL3396991.
